# Test system: IGROV1 ovarian
# Method Summary: NCI tumour cell line growth inhibition, 48 h; in the data active = GI50 below about 0.43 µM; inactive = the rest
Give one outcome, nothing more. List: y (active), n (inactive)

[ask] Identify the outcome logged in this assay for the compound shown: CCOC(=O)c1c(C)n2c(=O)cc(C)c3c(O)c(O)cc1c32
[reply] n

[ask] Call for entry CC(=O)c1cc(C(=O)c2ccc3c(c2)Sc2ccccc2N3)c2c(C)cc(C)cn12 :
[reply] n

* * *

# System: UACC-62 melanoma
# Method Summary: NCI tumour cell line growth inhibition, 48 h; in the data active = GI50 below about 0.43 µM; inactive = the rest
Reply using exactly one outcome from T (active), F (inactive)

Consider the worked cases shown below.
[[record]]
molecule = "O=C1C(=O)c2c(nc3ccc(Br)cn23)-c2ccccc21"
class_assignment = "T"

[[record]]
molecule = "CC(=O)c1cc(C(=O)c2ccc3c(c2)Sc2ccccc2N3)c2c(C)cc(C)cn12"
class_assignment = "T"

[[record]]
molecule = "O=[N+]([O-])c1ccccc1N/N=C\\c1c[nH]c2ccccc12"
class_assignment = "F"

[[record]]
molecule = "O=[N+]([O-])c1ccc(Sc2ncnc3nc[nH]c23)c2nonc12"
class_assignment = "F"


[ask] Could you please tell me the result logged for COc1ccc2cc(-c3cc4c(oc3=O)-c3ccccc3OC4O)c(=O)oc2c1 (stereo unspecified) in this assay?
[reply] F

[ask] Given CC1(C)CCC2=C(O1)c1ccccc1C(=O)C2=O , state the outcome it received in this test.
[reply] F

* * *

Catalogue of TGI readings, one per entry.
# Tested on: K-562 leukemia
# Method Summary: NCI tumour cell line growth inhibition, 48 h

Study these solved cases before continuing.
[[record]]
compound = "CCOC(=O)[C@@]12C3C=CC(CC3)[C@]1(C(=O)c1ccccc1)C(=O)C(=O)N2c1ccccc1 (some centres not stated)"
measured_parameter = "TGI"
result = "> 100 µM"

[[record]]
compound = "CCCCCCCCOCC(O)COC(=O)CCCCCCC (configuration not stated)"
measured_parameter = "TGI"
result = "> 100 µM"

[[record]]
compound = "C[C@]12CC/C(=N\\O)C=C1CC[C@@H]1[C@@H]2CC[C@]2(C)C(=N/O)/C(=C/c3ccc([N+](=O)[O-])cc3)C[C@@H]12"
measured_parameter = "TGI"
result = "19.5 µM"

[[record]]
compound = "CCN(CC)c1ccc2cc(C(=O)Nc3ccccc3)c(=N)oc2c1"
measured_parameter = "TGI"
result = "> 100 µM"

[[record]]
compound = "CCOC(=O)n1cc(C2=C(c3cn(C)c4ccccc34)COC2=O)c2ccccc21"
measured_parameter = "TGI"
result = "> 32.2 µM"


Looking up C=C(C)[C@@]1(OC(=O)c2cc([N+](=O)[O-])cc([N+](=O)[O-])c2)C[C@@H]2CCCC[C@@H]21 , I see its TGI listed as > 100 µM

Reported TGI of CCOC(=O)CSC(=O)NCCCl : > 100 µM

Reported TGI ( Cc1ccc(N=Nc2ccc(O)c(CN(C)C)c2)cc1 ) = 39.6 µM

get_value(item= CC1=C/C(=N\O)C(C(O)(C(F)(F)F)C(F)(F)F)C(C)(C)C1 (configuration not stated) , readout=TGI) returns > 10 µM

Field TGI (entry O=C1c2nsnc2C(=O)c2c(F)c(F)c(F)c(F)c21 ) reads 1.01 µM

CCCCC(Sc1cc(Cl)c(C)cc1S(=O)(=O)Nc1n[nH]c(N)n1)C(=O)OC (configuration not stated) yielded TGI of > 10 µM

Summary for this compound, c1cc2[nH]ncc2cc1-c1nc2ccc3[nH]ncc3c2c2c1CCCC2 : TGI is > 44 µM

Lab note: CNC(=O)N(CCC#N)CCCN(C(=O)NC)c1ccccc1 gave TGI of > 100 µM
